tested on: HOP-62 NSCLC; assay: NCI-60 one-dose screen, 48 h (100 = growth as untreated, 0 = no growth, -100 = all killed); conditions: 10 µM unless noted
The panel holds about 83,000 compounds, 20% with a hit somewhere; the sample as a whole holds those more often.
Each entry below carries its reported growth.

[
  {
    "compound": "O=C1CCC2(O)[C@@H]3Cc4ccc(O)c5c4[C@]2(CCN3Cc2ccoc2)C1O5 (stereo not given in full)",
    "target.system": "HOP-62 NSCLC",
    "growth [%]": 106
  },
  {
    "compound": "OCc1ccc2c(c1)OCO2",
    "target.system": "HOP-62 NSCLC",
    "growth [%]": 93.5
  },
  {
    "compound": "O=C(N/N=C/c1ccc(N(CCCl)CCCl)cc1)c1cccc2ccccc12",
    "target.system": "HOP-62 NSCLC",
    "growth [%]": 59.5
  },
  {
    "compound": "O=C([O][Hg][CH2]C1COCC([CH2][Hg][O]C(=O)c2ccccc2)O1)c1ccccc1 (stereo not given)",
    "target.system": "HOP-62 NSCLC",
    "growth [%]": 127
  },
  {
    "compound": "CC12CCC3C(C=CC4=C(N)C(=O)CCC43C)C1CCC2=O (stereo not given)",
    "target.system": "HOP-62 NSCLC",
    "growth [%]": 112
  },
  {
    "compound": "COc1ccc(C/C(C)=C(\\c2ccc(OCCN3CCOCC3)cc2)c2ccc(OC(=O)Cc3ccccc3)cc2)cc1",
    "target.system": "HOP-62 NSCLC",
    "growth [%]": -74.1
  },
  {
    "compound": "COc1ccc2c(c1)c(-c1nc(-c3cn(C)c4ncccc34)cs1)cn2CCN1CCOCC1",
    "target.system": "HOP-62 NSCLC",
    "growth [%]": 12.5
  },
  {
    "compound": "O=C1N[C@@H]2[C@@H](O)[C@@H](O)[C@H](O)C[C@H]2c2cc3c(c(O)c21)OCO3",
    "target.system": "HOP-62 NSCLC",
    "growth [%]": -18.9
  },
  {
    "compound": "CCOc1ccccc1C(=O)OCC(Cl)(Cl)Cl",
    "target.system": "HOP-62 NSCLC",
    "growth [%]": 99.9
  },
  {
    "compound": "CCOP1(=O)CC(C)=C(Cl)C(P(=O)(OCC)OCC)C1 (stereo not given)",
    "target.system": "HOP-62 NSCLC",
    "growth [%]": 93.9
  },
  {
    "compound": "CC[C@H](C)[C@H](NC(=O)[C@H]1CCCCN1C)C(=O)N(C)[C@H](C[C@@H](OC(C)=O)c1cccc(C(=O)N[C@@H](Cc2ccccc2)C[C@H](C)C(=O)O)n1)C(C)C",
    "target.system": "HOP-62 NSCLC",
    "growth [%]": 1.64
  },
  {
    "compound": "COc1ccc(/C=C\\c2cc(OC)c(OC)c(OC)c2)cc1OCC(=O)Nc1nc2ccc(F)cc2s1",
    "target.system": "HOP-62 NSCLC",
    "growth [%]": 51
  },
  {
    "compound": "COc1cc(/C=C/[N+](=O)[O-])cc(OC)c1",
    "target.system": "HOP-62 NSCLC",
    "growth [%]": 35.9
  },
  {
    "compound": "CC(=O)OCc1cc[c]([Hg][Cl])o1",
    "target.system": "HOP-62 NSCLC",
    "growth [%]": 91.4
  },
  {
    "compound": "OCCCCCNC1CCCCC1",
    "target.system": "HOP-62 NSCLC",
    "growth [%]": 111
  },
  {
    "compound": "Cc1cccc(N2CCN(C(C)C#N)CC2)c1 (stereo not given)",
    "target.system": "HOP-62 NSCLC",
    "growth [%]": 107
  },
  {
    "compound": "COC(=O)CCc1c[nH]c2ccc(N(CCCl)CCCl)cc12",
    "target.system": "HOP-62 NSCLC",
    "growth [%]": 47.5
  },
  {
    "compound": "O=C(CCCCCCC(=O)Nc1ccc(N(CCCl)CCCl)cc1)NO",
    "target.system": "HOP-62 NSCLC",
    "growth [%]": 23.8
  },
  {
    "compound": "COc1cc2ncnc(Nc3ccc(F)c(Cl)c3)c2cc1OCC(=O)N1CCN(C)CC1",
    "target.system": "HOP-62 NSCLC",
    "growth [%]": 96.9
  },
  {
    "compound": "C=CC1=C[C@@H]2[C@@H]3O[C@]4(CC[C@H](O4)[C@@H](C)C[C@@H](O)C3=O)C[C@H](O)C3=NCC[C@@]32CC1",
    "target.system": "HOP-62 NSCLC",
    "growth [%]": -20.3
  },
  {
    "compound": "COC(=O)[C@@H](C)C[C@H](Cc1ccc(F)cc1)NC(=O)c1csc([C@@H](C[C@H](C(C)C)N(C)C(=O)[C@@H](NC(=O)[C@H]2CCCCN2C)C2CC2)OC(C)=O)n1",
    "target.system": "HOP-62 NSCLC",
    "growth [%]": 12.2
  },
  {
    "compound": "NC1CC2CCCCC2CC1(O)c1ccccc1 (stereo not given)",
    "target.system": "HOP-62 NSCLC",
    "growth [%]": 106
  },
  {
    "compound": "O=P1(NCCCl)OCCCN1CCCl (stereo not given)",
    "target.system": "HOP-62 NSCLC",
    "growth [%]": 108
  },
  {
    "compound": "Cn1cc(-c2csc(-c3cn(CCCCN4CCCCC4)c4ccccc34)n2)c2cccnc21",
    "target.system": "HOP-62 NSCLC",
    "growth [%]": 51.6
  },
  {
    "compound": "C[N+]12CN3CN(CN(C3)C1)C2",
    "target.system": "HOP-62 NSCLC",
    "growth [%]": 88
  },
  {
    "compound": "CN(CCCCN(C)CCOS(C)(=O)=O)CCOS(C)(=O)=O",
    "target.system": "HOP-62 NSCLC",
    "growth [%]": 84.7
  },
  {
    "compound": "O=C(Nc1ccc(Cl)cc1)Nc1nccs1",
    "target.system": "HOP-62 NSCLC",
    "growth [%]": 31.7
  },
  {
    "compound": "O=C1C2CCC1C(N1CCCC1)CC2 (stereo not given)",
    "target.system": "HOP-62 NSCLC",
    "growth [%]": 101
  },
  {
    "compound": "CC(=O)O[C@H](C[C@H](C(C)C)N(C)C(=O)[C@@H](NC(=O)[C@H]1CCCCN1C)C(C)C)c1nc(C(=O)N[C@@H](Cc2ccccc2)C[C@H](C)C(=O)O)c(C)s1",
    "target.system": "HOP-62 NSCLC",
    "growth [%]": 32.1
  },
  {
    "compound": "CC1=C(CCCNS(C)(=O)=O)C2=C(C)C3(CC3)[C@@](C)(O)C(=O)C2=C1",
    "target.system": "HOP-62 NSCLC",
    "growth [%]": -20.5
  },
  {
    "compound": "CC(=O)OC1C(OC/C2=C/C3[C@@H](C(C)C)CC=C(C)[C@@H]3CC(OC(=O)/C=C/c3cn(C)cn3)[C@]3(C)C=C[C@@]2(O)O3)OCC(O)C1O (stereo not given in full)",
    "target.system": "HOP-62 NSCLC",
    "growth [%]": 8.78
  },
  {
    "compound": "CC1CCCC(C[N+](C)(C)C)C1=O (stereo not given)",
    "target.system": "HOP-62 NSCLC",
    "growth [%]": 106
  },
  {
    "compound": "O=C(CN1CCN(C(=O)c2ccco2)CC1)Nc1ccc(Cl)cc1C(=O)c1ccccc1Cl",
    "target.system": "HOP-62 NSCLC",
    "growth [%]": 105
  },
  {
    "compound": "CCOC(=O)[C@@H](C)C[C@H](Cc1ccccc1)NC(=O)c1nc([C@@H](C[C@H](C(C)C)N(C)C(=O)[C@@H](NC(=O)[C@H]2CCCCN2C)C(C)C)OC(C)=O)sc1CCOCc1ccccc1",
    "target.system": "HOP-62 NSCLC",
    "growth [%]": -42.7
  },
  {
    "compound": "NC(=O)c1c(Br)n(C2OC(CO)C(O)C2O)c2ncnc(N)c12 (stereo not given)",
    "target.system": "HOP-62 NSCLC",
    "growth [%]": 12
  }
]
